biological target: Gamma-aminobutyric acid receptor subunit alpha-1 (Rattus norvegicus); type: functional; further: assay procedure not described here
Sequence (P62813 whole entry): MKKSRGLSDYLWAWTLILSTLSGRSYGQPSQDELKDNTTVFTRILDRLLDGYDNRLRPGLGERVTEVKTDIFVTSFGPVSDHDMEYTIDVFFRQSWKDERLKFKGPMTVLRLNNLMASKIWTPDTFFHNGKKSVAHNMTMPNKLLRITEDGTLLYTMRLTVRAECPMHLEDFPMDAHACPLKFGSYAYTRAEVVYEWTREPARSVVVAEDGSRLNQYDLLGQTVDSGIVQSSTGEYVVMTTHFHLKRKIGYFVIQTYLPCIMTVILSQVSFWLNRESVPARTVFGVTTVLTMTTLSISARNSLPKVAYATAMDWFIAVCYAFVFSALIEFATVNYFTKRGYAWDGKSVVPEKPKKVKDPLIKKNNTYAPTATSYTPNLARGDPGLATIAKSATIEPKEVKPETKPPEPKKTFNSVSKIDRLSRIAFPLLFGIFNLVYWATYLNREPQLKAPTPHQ
# AC50 per entry
measure name: AC50

[
  {
    "compound": "C[C@H](Cn1cnc2c(N)ncnc21)OCP(=O)(O)O [TENOFOVIR ANHYDROUS]",
    "test value": "> 30 µM"
  },
  {
    "compound": "OCC(O)COc1ccc(Cl)cc1 (stereo not drawn)",
    "test value": "> 10 µM"
  },
  {
    "compound": "Cc1cnc(Nc2ccc(OCCN3CCCC3)cc2)nc1Nc1cccc(S(=O)(=O)NC(C)(C)C)c1",
    "test value": "> 10 µM"
  },
  {
    "compound": "CC1=C(/C=C/C(C)=C/C=C/C(C)=C/C(=O)Oc2c(C)c(C)c3c(c2C)CCC(C)(CCCC(C)CCCC(C)CCCC(C)C)O3)C(C)(C)CCC1 (stereo not drawn)",
    "test value": "> 30 µM"
  },
  {
    "compound": "Nc1cc(N2CCCCC2)nc(N)[n+]1[O-]",
    "test value": "> 10 µM"
  },
  {
    "compound": "CCN(CC)CCn1c(=O)c(Cc2ccc(OC)cc2)nc2ccccc21",
    "test value": "19 µM"
  },
  {
    "compound": "C[C@]12C=CC(=O)C=C1CC[C@@H]1[C@@H]2[C@@H](O)C[C@@]2(C)[C@H]1CC[C@]2(O)C(=O)CO",
    "test value": "> 10 µM"
  },
  {
    "compound": "C[C@]12C=CC(=O)C=C1C(Cl)=C[C@@H]1[C@@H]2[C@@H](O)C[C@@]2(C)[C@H]1CC[C@]2(O)C(=O)CO",
    "test value": "> 30 µM"
  }
]

These data points were gathered from ChEMBL document CHEMBL5291721.
